Test system: G glycoprotein binding to 293-CX3CR1 cells
Parameters: species or system human
condition: inhibitor 1 μM, no heparin
quantity: Range of Inhibition (%) of G glycoprotein binding

Noted for VPCSICSNNPTC [RT32] : its Range of Inhibition (%) of G glycoprotein binding reads 8-14%

For this sequence ( TCWAIACKRIPNK [Δ + 1] ), measured Range of Inhibition (%) of G glycoprotein binding is 16-22%

What the record says about NKKPGKKTTTKP [RT34] : Range of Inhibition (%) of G glycoprotein binding is 4-18%

Form: sequence = TCWAICKRIPNK [RT33] ; Range of Inhibition (%) of G glycoprotein binding = 35-42%

Item: TCWACKRIPNK (TCWAIACKRIPNK) [Δ − 1] | Range of Inhibition (%) of G glycoprotein binding: 8-12%

----------
Please go through the items and note down their Total IC cytokine Expressing CD3^+ BAL cells (×10^3) ± SEM: IL-6.
Tested on: CD3+ BAL cells
experiment: Intracellular cytokine expression by CD3+ T cells following in vivo peptide treatment
Design: species or system BALB/c mice
condition: day 7 pi

The recorded Total IC cytokine Expressing CD3^+ BAL cells (×10^3) ± SEM: IL-6 for NKKPGKKTTTKP [RT34] is 8.9 ± 3.0 ×10^3

Measured Total IC cytokine Expressing CD3^+ BAL cells (×10^3) ± SEM: IL-6 of TCAAACKRIPNKK [EYp1, 13-mer G glycoprotein peptide variant of RT33 with CAAAC motif] : 17 ± 2.4 ×10^3

Short answer for TCWACKRIPNK (TCWAIACKRIPNK) [Δ − 1] : Total IC cytokine Expressing CD3^+ BAL cells (×10^3) ± SEM: IL-6 was 6.3 ± 1.0 ×10^3

Sample TCWAICKRIPNK [RT33] ; Total IC cytokine Expressing CD3^+ BAL cells (×10^3) ± SEM: IL-6 observed: 5.8 ± 0.8 ×10^3

Just so you know, measured Total IC cytokine Expressing CD3^+ BAL cells (×10^3) ± SEM: IL-6 for TCWAIACKRIPNK [Δ + 1] came out at 11 ± 3.3 ×10^3

----------
Please provide measured Total IC cytokine Expressing CD3^+ BAL cells (×10^3) ± SEM: IL-6 for the entries that follow.
System: CD3+ BAL cells
experiment: Intracellular cytokine expression by CD3+ T cells following in vivo peptide treatment
Set-up: species or system BALB/c mice
condition: day 5 pi

Total IC cytokine Expressing CD3^+ BAL cells (×10^3) ± SEM: IL-6 in this record for TCWAICKRIPNK [RT33] : 9.0 ± 1.2 ×10^3

GET /value?item= TCAAACKRIPNKK [EYp1, 13-mer G glycoprotein peptide variant of RT33 with CAAAC motif] &field=Total IC cytokine Expressing CD3^+ BAL cells (×10^3) ± SEM: IL-6 returns 19 ± 7.4 ×10^3

Note to self: Total IC cytokine Expressing CD3^+ BAL cells (×10^3) ± SEM: IL-6 recorded for TCWACKRIPNK (TCWAIACKRIPNK) [Δ − 1] was 13 ± 2.0 ×10^3

The sequence NKKPGKKTTTKP [RT34] showed Total IC cytokine Expressing CD3^+ BAL cells (×10^3) ± SEM: IL-6 equal to 30 ± 4.4 ×10^3

Entry TCWAIACKRIPNK [Δ + 1] , Total IC cytokine Expressing CD3^+ BAL cells (×10^3) ± SEM: IL-6 reported as 21 ± 6.5 ×10^3
